Biological target: T1, human ActRIIA (human, UniProt P27037 20-135, limits assumed)
T1 construct: antigen in MSD-SET; also called ACVR2A; ActR2A
T1 sequence (P27037 20-135 limits assumed): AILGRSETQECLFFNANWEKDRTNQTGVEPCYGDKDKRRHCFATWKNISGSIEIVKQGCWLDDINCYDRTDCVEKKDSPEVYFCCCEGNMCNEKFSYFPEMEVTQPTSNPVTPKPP
Experiment: MSD-SET
test_readout: pKd
Kindly note that pKd refers to -log10 of the concentration in mol/L and answer with the value alone.

{"binder": "Antibody Hefaknöpfla (antibody, V domains shown, full-length IgG) VH: QVQLVQSGAEVKKPGASVKVSCKASGYTFTSSYINWVRQAPGQGLEWMGTINAVSGSTSYAQKFQGRVTMTRDTSISTAYMELSRLRSDDTAVYYCARGGWFDYWGQGTLVTVSS VL: QSALTQPASVSGSPGQSITISCTGTSSDVGSKNYVNWYQQHPGKAPKLMIYGVSKRESGVSNRFSGSKSGNTASLTISGLQAEDEADYYCGTFAGGKYYGVFGGGTKLTVL", "pKd": 10.82}
{"binder": "Antibody Rippla (antibody, V domains shown, full-length IgG; also called Ripp1a) VH: QVQLVQSGAEVRKPGASVKVSCKASGYTFTSSYINWVRQAPGQGLEWMGTINPVSGSTSYAQKFQGRVTMTRDTSISTAYMELSRLRSDDTAVYYCARGGWFDYWGQGTLVTVSS VL: QSALTQPASVSGSPGQSITISCTGTSSDVGSYNRVNWYQQHPGKAPKLMIYGVSKRESGVSNRFSGSKSGNTASLTISGLQAEDEADYYCGTFAGGRYYGVFGGGTKLTVL", "pKd": 10.38}

Now consider a different binder.
Tell me measured pKd for Antibody Ochsamaulsalat (antibody, V domains shown, full-length IgG) VH: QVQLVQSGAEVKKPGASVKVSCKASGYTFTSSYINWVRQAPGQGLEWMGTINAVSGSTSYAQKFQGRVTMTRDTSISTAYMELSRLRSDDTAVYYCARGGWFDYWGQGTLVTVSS VL: QSALTQPASVSGSPGQSITISCTGTSSDVGSRNYVNWYQQHPGKAPKLMIYGVSKRESGVSNRFSGSKSGNTASLTISGLQAEDEADYYCGTFAGGDYYGVFGGGTKLTVL please. 10.70
